Catalogue of molecules with associated pIC50
# System: RAW264.7
# Test Method Notes: Antiinflammatory activity against LPS-stimulated mouse RAW264.7 cells assessed as inhibition of NO production incubated for 2 hrs followed by LPS stimulation for 20 hrs by Griess reagent based assay
# Assay type: functional, cell-based
pIC50: −log10 of the molar value.
Measure Name: pIC50

1) C[C@H]1[C@H](C)CC[C@]2(C(=O)O)CC[C@]3(C)C(=CC[C@@H]4[C@@]5(C)CC[C@H](O)C(C)(C)[C@@H]5CC[C@]43C)[C@H]12 [URSOLIC ACID]; 4.86
2) C=C(C)[C@@H]1CC[C@]2(C)CC[C@]3(C)[C@H](CC[C@@H]4[C@@](C)(CCCO)[C@H](C(=C)C)CC[C@]43C)[C@@H]12; 4.26
3) C=C(C)[C@@H]1CC[C@]2(C)[C@H](CC=C3[C@@H]4[C@@H](C)[C@H](C)CC[C@]4(C)CC[C@]32C)[C@@]1(C)CCCN1C[C@H](O)C[C@H]1C(=O)OC; 4.37
